Exercise: for every item that follows, state its recorded EC50.
- system: F508delCFTR cell surface expression in CFBE41o-F508delCFTR-HRP cells (Homo sapiens, UniProt P13569, DEL508-508)
- Construct: fused on or other part: Horseradish peroxidase (HRP) reporter inserted in the fourth exofacial (extracellular) loop of CFTR; expression is doxycycline-inducible
- Sequence (P13569 with tags, fused parts or gaps DEL508-508 limits assumed): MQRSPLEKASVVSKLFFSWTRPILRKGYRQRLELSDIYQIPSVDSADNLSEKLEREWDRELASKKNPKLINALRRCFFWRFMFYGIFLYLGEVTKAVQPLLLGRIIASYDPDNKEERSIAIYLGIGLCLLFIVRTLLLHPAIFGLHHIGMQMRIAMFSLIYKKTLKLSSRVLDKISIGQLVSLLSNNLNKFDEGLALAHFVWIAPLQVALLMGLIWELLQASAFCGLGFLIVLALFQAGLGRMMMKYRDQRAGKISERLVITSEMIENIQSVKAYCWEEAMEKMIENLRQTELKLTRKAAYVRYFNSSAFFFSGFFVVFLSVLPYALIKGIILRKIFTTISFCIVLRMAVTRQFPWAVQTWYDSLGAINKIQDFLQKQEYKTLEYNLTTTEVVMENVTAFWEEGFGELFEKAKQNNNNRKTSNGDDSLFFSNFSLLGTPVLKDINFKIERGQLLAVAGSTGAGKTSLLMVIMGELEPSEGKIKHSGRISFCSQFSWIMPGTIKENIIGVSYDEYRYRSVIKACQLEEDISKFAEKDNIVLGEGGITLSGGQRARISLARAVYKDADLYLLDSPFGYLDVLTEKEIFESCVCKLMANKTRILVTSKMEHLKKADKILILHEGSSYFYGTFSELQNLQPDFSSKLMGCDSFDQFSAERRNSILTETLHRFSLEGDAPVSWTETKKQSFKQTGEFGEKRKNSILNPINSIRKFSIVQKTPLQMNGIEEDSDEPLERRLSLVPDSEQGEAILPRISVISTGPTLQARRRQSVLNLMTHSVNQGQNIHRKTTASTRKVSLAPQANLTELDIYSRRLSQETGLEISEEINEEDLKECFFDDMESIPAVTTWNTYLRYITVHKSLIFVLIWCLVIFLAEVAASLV
- Sequence (P13569 919-1480 limits assumed, stated change not applied): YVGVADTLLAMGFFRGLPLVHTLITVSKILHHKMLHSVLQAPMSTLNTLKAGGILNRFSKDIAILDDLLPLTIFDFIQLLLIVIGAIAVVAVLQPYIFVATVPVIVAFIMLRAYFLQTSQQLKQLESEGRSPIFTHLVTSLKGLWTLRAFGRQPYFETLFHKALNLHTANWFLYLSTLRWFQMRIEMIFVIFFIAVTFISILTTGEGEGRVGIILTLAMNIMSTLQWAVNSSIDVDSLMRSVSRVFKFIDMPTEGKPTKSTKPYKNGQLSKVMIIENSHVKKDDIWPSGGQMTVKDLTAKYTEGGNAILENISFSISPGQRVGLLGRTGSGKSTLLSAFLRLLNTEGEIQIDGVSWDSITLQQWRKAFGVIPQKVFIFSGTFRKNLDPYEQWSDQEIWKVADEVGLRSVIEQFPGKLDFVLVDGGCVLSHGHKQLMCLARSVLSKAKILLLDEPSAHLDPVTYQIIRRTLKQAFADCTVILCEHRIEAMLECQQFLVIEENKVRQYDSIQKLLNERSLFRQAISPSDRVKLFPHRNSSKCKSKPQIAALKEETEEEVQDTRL
- assay name: Cell Surface Expression-Horse Radish Peroxidase (CSE-HRP) Assay
- assay context: CFBE41o-F508delCFTR-HRP cells, 18-24 hours at 33° C., 8-point curve, highest concentration 20 μM
Output spec: scalar in nM, unitless text.

Field EC50 (entry C[C@]1(C(=O)Nc2cccc(-c3ccc(C(=O)O)cc3F)n2)COc2cc3c(cc21)OC(F)(F)O3 [Example 123] ) reads 1530

Reported EC50 for C[C@]1(C(=O)Nc2cc(C3CC3)nn(-c3ccc(C(=O)O)cc3)c2=O)COc2cc3c(cc21)OC(F)(F)O3 [Example 32] was 880

# EC50 (molecule: COc1ccc2c(c1)O[C@@H](c1ccc(C(=O)N3C[C@@H](O)[C@H](O)C3)cn1)C[C@H]2NC(=O)[C@@]1(C)COc2cc3c(cc21)OC(F)(F)O3 [Example 248] ) is 90

Measured EC50 of CCOC(=O)C1([C@H]2C[C@@H](NC(=O)[C@@]3(C)COc4cc5c(cc43)OC(F)(F)O5)c3ccc(OC(F)(F)F)cc3O2)CC1 [Example 164] : 106
